Examples of compounds with documented β-sheet follow.
- ASSAY PROCEDURE: Circular dichroism, estimate of secondary structure
- Type: physicochemical
- STUDY CONDITIONS: CD, 100 µM peptide in water, principal component regression analysis
Non-standard residues stand in square brackets, D forms with d. Residues, ends and D or L forms follow the SMILES beside them. Dip = N[C@H](C(=O)O)C(c1ccccc1)c1ccccc1
Dear colleague, please return just the value in %, with no unit written.

Completed entries (count: 2):
N=C(N)NCCC[C@@H]1NC(=O)[C@H](Cc2c[nH]c3ccccc23)NC(=O)[C@H](CCCNC(=N)N)NC(=O)[C@H](Cc2c[nH]c3ccccc23)NC(=O)[C@H](CCCNC(=N)N)NC(=O)[C@H](C(c2ccccc2)c2ccccc2)NC(=O)[C@H](CCCNC(=N)N)NC(=O)[C@H](Cc2c[nH]c3ccccc23)NC(=O)[C@H](CCCNC(=N)N)NC(=O)[C@H](Cc2c[nH]c3ccccc23)NC1=O [[(DipR)(WR)4]]    16.8
N=C(N)NCCC[C@@H]1NC(=O)[C@H](C(c2ccccc2)c2ccccc2)NC(=O)[C@H](CCCNC(=N)N)NC(=O)[C@H](C(c2ccccc2)c2ccccc2)NC(=O)[C@H](CCCNC(=N)N)NC(=O)[C@H](C(c2ccccc2)c2ccccc2)NC(=O)[C@H](CCCNC(=N)N)NC(=O)[C@H](C(c2ccccc2)c2ccccc2)NC(=O)[C@H](CCCNC(=N)N)NC(=O)[C@H](C(c2ccccc2)c2ccccc2)NC1=O [[DipR]5] (cyclo([Dip]R[Dip]R[Dip]R[Dip]R[Dip]R))    12.1

**Query** I am curious: what β-sheet value has been reported for N=C(N)NCCC[C@@H]1NC(=O)[C@H](Cc2c[nH]c3ccccc23)NC(=O)[C@H](CCCNC(=N)N)NC(=O)[C@H](C(c2ccccc2)c2ccccc2)NC(=O)[C@H](CCCNC(=N)N)NC(=O)[C@H](C(c2ccccc2)c2ccccc2)NC(=O)[C@H](CCCNC(=N)N)NC(=O)[C@H](C(c2ccccc2)c2ccccc2)NC(=O)[C@H](CCCNC(=N)N)NC(=O)[C@H](Cc2c[nH]c3ccccc23)NC1=O [[(DipR)3(WR)2]] (cyclo([Dip]R[Dip]R[Dip]RWRWR)) ?
**Result** 31.5

**Query** I am curious: what β-sheet value has been reported for N=C(N)NCCC[C@@H]1NC(=O)[C@H](Cc2c[nH]c3ccccc23)NC(=O)[C@H](CCCNC(=N)N)NC(=O)[C@H](C(c2ccccc2)c2ccccc2)NC(=O)[C@H](CCCNC(=N)N)NC(=O)[C@H](C(c2ccccc2)c2ccccc2)NC(=O)[C@H](CCCNC(=N)N)NC(=O)[C@H](C(c2ccccc2)c2ccccc2)NC(=O)[C@H](CCCNC(=N)N)NC(=O)[C@H](C(c2ccccc2)c2ccccc2)NC1=O [[(DipR)4(WR)]] (cyclo([Dip]R[Dip]R[Dip]R[Dip]RWR)) ?
**Result** 34.9

**Query** I am curious: what β-sheet value has been reported for N=C(N)NCCC[C@@H]1NC(=O)[C@H](Cc2c[nH]c3ccccc23)NC(=O)[C@H](CCCNC(=N)N)NC(=O)[C@H](Cc2c[nH]c3ccccc23)NC(=O)[C@H](CCCNC(=N)N)NC(=O)[C@H](C(c2ccccc2)c2ccccc2)NC(=O)[C@H](CCCNC(=N)N)NC(=O)[C@H](C(c2ccccc2)c2ccccc2)NC(=O)[C@H](CCCNC(=N)N)NC(=O)[C@H](Cc2c[nH]c3ccccc23)NC1=O [[(DipR)2(WR)3]] (cyclo([Dip]R[Dip]RWRWRWR)) ?
**Result** 18.6
